Cited source for all entries: the supplement of paper PMC10065799

biological target: SHP2-C SH2; assay: SH2 binding enrichment of the phosphorylated peptide, bacterial display (enrichment ratio); higher = better substrate or ligand; peptides without Tyr show the background;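 also: peptide library displayed on the E. coli surface as eCPX fusions, selected cells deep-sequenced, score is each peptide's frequency after selection divided by its frequency in the input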
VALUE KIND: SH2 binding enrichment

| SEQ STRING | OBSERVED VALUE |
| --- | --- |
| QDDFSYPSRQM [LDLR_Y847_G844D_YF] | 0.892 |

I. QRRFVYFFSFL [PTEN_Y176_YF]
II. DVFRQYASLTG [GANAB_Y379]
// query Form: Entry with minimum SH2 binding enrichment (choose one): I / II Use the label to indicate which entry you chose.
// result I
(I: 0.821, II: 6.85)

A. FSQNIYIQNRN [PKP2_Y631_YF]
B. NSGFFYKTAEE [CCT6B_Y250]
// query Form: Entry with minimum SH2 binding enrichment (choose one): A / B Use the label to indicate which entry you chose.
// result B

a. AEDKPYAELWT [MPI_Y46_M51T]
b. VEKGSYSALLA [ABCC2_Y845]
// query Form: Entry with minimum SH2 binding enrichment (choose one): a / b Use the label to indicate which entry you chose.
// result b
(b: 0.686, a: 1.11)
